Experiment: FT-Raman quantitation of 5-/6-methoxy isomers in omeprazole API, partial least squares
Assay type: physicochemical
Conditions: standards
READOUT_KIND: % 5-isomer (%)
Answer with a number only, understood to be in %.

Solved entries (count: 2):
**Q:** Data request, read-out % 5-isomer, for COc1ccc2[nH]c([S+]([O-])Cc3ncc(C)c(OC)c3C)nc2c1 (stereo not shown) [Example 37]
**A:** 12.246

**Q:** Now the compound COc1ccc2nc([S+]([O-])Cc3ncc(C)c(OC)c3C)[nH]c2c1 (stereo not shown) [Example 1]
**A:** 5.875

---
**Q:** Any idea what % 5-isomer was measured for COc1ccc2[nH]c([S+]([O-])Cc3ncc(C)c(OC)c3C)nc2c1 (stereo not shown) [Example 44] ?
**A:** 41.258

**Q:** Another compound to check: COc1ccc2nc([S+]([O-])Cc3ncc(C)c(OC)c3C)[nH]c2c1 (stereo not shown) [Example 1a]
**A:** 0.000

**Q:** Further, for COc1ccc2[nH]c([S+]([O-])Cc3ncc(C)c(OC)c3C)nc2c1 (stereo not shown) [Example 41] ?
**A:** 16.414

**Q:** Entry COc1ccc2[nH]c([S+]([O-])Cc3ncc(C)c(OC)c3C)nc2c1 (stereo not shown) [USP] please
**A:** 7.250

**Q:** Another: COc1ccc2[nH]c([S+]([O-])Cc3ncc(C)c(OC)c3C)nc2c1 (stereo not shown) [Example 36]
**A:** 16.005
